Where these numbers come from: ChEMBL document CHEMBL4680129

- Measurement Description: Selectivity index, ratio of CC50 African green monkey Vero cells to IC50 for Trypanosoma cruzi amastigotes
- Assay type: toxicity
- Assay Context: read-out: Selectivity Index
Property: selectivity ratio

Kindly note the recorded selectivity ratio for O=C(Cn1ccnc1[N+](=O)[O-])NCc1ccccc1 [BENZNIDAZOLE] , which is 196

###

- Measurement Description: Selectivity index, ratio of CC50 African green monkey Vero cells to IC50 for Trypanosoma cruzi epimastigotes
- Assay type: toxicity
- Assay Context: read-out: Selectivity Index
Exercise: for every item that follows, state its recorded selectivity ratio.
Numbers only.

Here is how some compounds turned out for selectivity ratio.
>>> measured_result("O=C(O)c1c(CNCCN2CCOCC2)nc2ccc(Cl)cc2c1-c1ccccc1")
19.7
>>> measured_result("O=C(O)c1c(CN2CCN(CCO)CC2)nc2ccc(Cl)cc2c1-c1ccccc1")
8.6

Measured selectivity ratio of `O=C(Cn1ccnc1[N+](=O)[O-])NCc1ccccc1` : 122
